# credit: the supplement of paper PMC12042874

experiment: amyloid nucleation score (Sup35N fusion, yeast selection) (log enrichment); library NNK3; higher = more nucleation; inactive = no reads after selection;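 also: zero at mode of non-aggregating sequences after 7 days selection at 30°C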
MEASUREMENT NAME: amyloid nucleation score

| SUBSTANCE | MEASUREMENT NAME | RESULT |
| --- | --- | --- |
| SLMDVN | amyloid nucleation score | inactive |
| NYYINKSMVRSRWFCCLPLW | amyloid nucleation score | 2.34 |
| CMFVVFQLVTGHFTLLQYHG | amyloid nucleation score | 1.82 |
| VRFKRVYCSG | amyloid nucleation score | inactive |
| TYCERKFTTSGTSYTSQKYF | amyloid nucleation score | inactive |
| GMTVLLSMVI | amyloid nucleation score | inactive |
| MLCDVSKVDLSRLLGAGVYD | amyloid nucleation score | inactive |
| EDYLFHLLRDPRRTGWLIWF | amyloid nucleation score | inactive |
| NSVGFACKEFMHVTAQTHKM | amyloid nucleation score | inactive |
| NTFTPVFLTSKYSMRYGLIM | amyloid nucleation score | inactive |
| VVRFFLRTRTEGGYTWVLK | amyloid nucleation score | inactive |
| VIMRMFSFARLFVGSYPFRV | amyloid nucleation score | inactive |
| FPDLVVYSS | amyloid nucleation score | inactive |
| FYSWDIHGCIVHSIYV | amyloid nucleation score | inactive |
| FQYRLTVEGMSWWTGGW | amyloid nucleation score | inactive |
| YMRSIGSIFFILYCMQSAHG | amyloid nucleation score | 0.121 |
| GNWCSG | amyloid nucleation score | inactive |
| ASVMLNFC | amyloid nucleation score | inactive |
| GVAELMGVWDVKLVVPLEES | amyloid nucleation score | inactive |
| GYAISRFVFDTFRIFAVL | amyloid nucleation score | inactive |
| NIICTWCGGFMRLNLNV | amyloid nucleation score | 1.9 |
| NAEVALDHSSDLDS | amyloid nucleation score | inactive |
| EVCFIRLLLLYCR | amyloid nucleation score | inactive |
| VYNRVHNCGMKVANYDTRDK | amyloid nucleation score | inactive |
| HATGSMNVSVSAGVRQQILR | amyloid nucleation score | inactive |
| DEGKSNPPF | amyloid nucleation score | inactive |
| IRSSREFYMSVYRTEAWVLE | amyloid nucleation score | inactive |
| INSTRMAFVWR | amyloid nucleation score | inactive |
| LTGRISIARFEVDLGFGCPS | amyloid nucleation score | 0.682 |
| NCVRSLCMLWTTFTCVNDLC | amyloid nucleation score | 2.1 |
| AFRSTSQYVY | amyloid nucleation score | inactive |
| DVFHSCLAQFILYTP | amyloid nucleation score | inactive |
| MFVRYIAISYWYQLTWEFSV | amyloid nucleation score | inactive |
| SITRWFHTVMSIFKFYFEFD | amyloid nucleation score | inactive |
| PETMCLGAKRFITGRETREL | amyloid nucleation score | 0.588 |
| LRNTFKCVTIRALGSKGGRA | amyloid nucleation score | inactive |
| FVDMIMKEDKFVLGQNFLRG | amyloid nucleation score | inactive |
| ILTKRTAAFDPLGLKNWERC | amyloid nucleation score | -0.398 |
| NCSSVPVSALFGEGVRKTPS | amyloid nucleation score | inactive |
| SLIIDKGPDVYCSWTVERIT | amyloid nucleation score | inactive |
| PVLPQGLRVLYDSVSVTSHL | amyloid nucleation score | inactive |
| FCIQSVFCCT | amyloid nucleation score | 2.88 |
| ALCKVMSKLPSISW | amyloid nucleation score | inactive |
| VAKFYRQ | amyloid nucleation score | inactive |
| KRYMIPKIYERNENYSFEQI | amyloid nucleation score | inactive |
| GFNYVFDSGEFGDRSFWHIY | amyloid nucleation score | inactive |
| AWYFAP | amyloid nucleation score | inactive |
| RMSLSGRYRHFWSGRCVCRE | amyloid nucleation score | inactive |
| IVVEQLHDWDIPMKGTTFRS | amyloid nucleation score | inactive |
| QEAGFMYGCYFVILQNHAGF | amyloid nucleation score | 1.3 |
| ELRSIR | amyloid nucleation score | inactive |
| CVCPDNDSPCDLGWVRRGNR | amyloid nucleation score | inactive |
| ILLRQKHVHNY | amyloid nucleation score | inactive |
| ACKSGHLNSHKNGYYV | amyloid nucleation score | inactive |
| FLSLIKM | amyloid nucleation score | 0.39 |
| SSSDCGNMNTTPRWAGGIGA | amyloid nucleation score | inactive |
| MPWGTWGAS | amyloid nucleation score | inactive |
| HYFSYIINTAMMRKAYILSG | amyloid nucleation score | 0.543 |
| KYLVALVRVRQSNLHS | amyloid nucleation score | inactive |
| WDNWSTIRWTVYALSRKSAR | amyloid nucleation score | inactive |
| NIYFLVRDSSRIRHKSVGWQ | amyloid nucleation score | 2.17 |
| LNFRSV | amyloid nucleation score | inactive |
| NAFGYSDVTVLVNSSLFESY | amyloid nucleation score | inactive |
| RCRDGTILALC | amyloid nucleation score | inactive |
| LAKCVSVHSIYIHDSICPVG | amyloid nucleation score | inactive |
| HLRKVCGGFM | amyloid nucleation score | inactive |
